experiment: Selectivity index, ratio of CC50 for human RD cells to EC50 for Enterovirus-D68 STL-2014-12 infected in human RD cells to; assay type: toxicity, cell-based; conditions: RD cells, read-out: Ratio CC50/EC50
property measured: selectivity ratio

In plain terms, `CCc1ccc(-c2ccc3ncc(-c4noc(C)n4)cc3c2)cc1` has a documented selectivity ratio of > 16

In plain terms, `CC(C)(C)c1nc(-c2cnc3ccc(-c4ccc(N)cc4)cc3c2)no1` has a documented selectivity ratio of > 2

In plain terms, `CCc1nc(-c2cnc3ccc(-c4ccccc4)cc3c2)no1` has a documented selectivity ratio of > 44

In plain terms, `FC(F)(F)c1nc(-c2cnc3ccc(-c4ccc(Cl)cc4)cc3c2)no1` has a documented selectivity ratio of > 8

In plain terms, `Cc1nc(-c2cnc3ccc(-c4ccc(O)cc4)cc3c2)no1` has a documented selectivity ratio of > 5

In plain terms, `CCc1nc(-c2cnc3ccc(-c4ccc(O)cc4)cc3c2)no1` has a documented selectivity ratio of > 13

In plain terms, `CCOC(=O)c1cnc2ccc(-c3ccccc3)cc2c1` has a documented selectivity ratio of > 8

In plain terms, `CCCCc1ccc(-c2ccc3ncc(C(=O)OCC)cc3c2)cc1` has a documented selectivity ratio of > 9

In plain terms, `Fc1ccc(-c2ccc3ncc(-c4noc(C(F)(F)F)n4)cc3c2)cc1` has a documented selectivity ratio of > 6

In plain terms, `Nc1ccc(-c2ccc3ncc(-c4noc(C(F)(F)F)n4)cc3c2)cn1` has a documented selectivity ratio of > 14

In plain terms, `COc1ccc(-c2ccc3ncc(-c4noc(C)n4)cc3c2)cc1` has a documented selectivity ratio of > 131

In plain terms, `CCc1nc(-c2cnc3ccc(-c4ccc(F)cc4)cc3c2)no1` has a documented selectivity ratio of > 22

In plain terms, `CCc1nc(-c2cnc3ccc(-c4cccc(N)c4)cc3c2)no1` has a documented selectivity ratio of > 44

In plain terms, `CCc1nc(-c2cnc3ccc(-c4ccc(OC)cc4)cc3c2)no1` has a documented selectivity ratio of > 13

In plain terms, `CCCCc1ccc(-c2ccc3ncc(-c4noc(CC)n4)cc3c2)cc1` has a documented selectivity ratio of > 41

In plain terms, `CCc1nc(-c2cnc3ccc(-c4ccc(N5CCOCC5)cc4)cc3c2)no1` has a documented selectivity ratio of > 17

In plain terms, `CCc1nc(-c2cnc3ccc(-c4ccc(N)nc4)cc3c2)no1` has a documented selectivity ratio of > 555

In plain terms, `CCc1nc(-c2cnc3ccc(-c4ccc(N)c(Cl)c4)cc3c2)no1` has a documented selectivity ratio of > 12

In plain terms, `CCCCc1ccc(-c2ccc3ncc(-c4noc(C)n4)cc3c2)cc1` has a documented selectivity ratio of > 4

In plain terms, `CCc1nc(-c2cnc3ccc(-c4ccc(NC(C)=O)cc4)cc3c2)no1` has a documented selectivity ratio of > 22

In plain terms, `FC(F)(F)c1nc(-c2cnc3ccc(-c4ccc(N5CCOCC5)cc4)cc3c2)no1` has a documented selectivity ratio of > 1

In plain terms, `CCc1nc(-c2cnc3ccc(-c4ccc(Cl)cc4)cc3c2)no1` has a documented selectivity ratio of > 7

In plain terms, `Cc1nc(-c2cnc3ccc(-c4ccc(N)nc4)cc3c2)no1` has a documented selectivity ratio of > 15

In plain terms, `Cc1cc(CCCOc2c(C)cc(-c3noc(C(F)(F)F)n3)cc2C)on1` has a documented selectivity ratio of > 250

In plain terms, `Cc1nc(-c2cnc3ccc(-c4ccc(N)cc4)cc3c2)no1` has a documented selectivity ratio of > 9

In plain terms, `CCCc1ccc(-c2ccc3ncc(C(=O)OCC)cc3c2)cc1` has a documented selectivity ratio of > 6

In plain terms, `FC(F)(F)c1nc(-c2cnc3ccc(-c4ccccc4)cc3c2)no1` has a documented selectivity ratio of > 30

In plain terms, `Cc1nc(-c2cnc3ccc(-c4ccccc4)cc3c2)no1` has a documented selectivity ratio of > 11

In plain terms, `CC(C)c1ccc(-c2ccc3ncc(-c4noc(C(F)(F)F)n4)cc3c2)cc1` has a documented selectivity ratio of > 39

In plain terms, `CCc1nc(-c2cnc3ccc(-c4ccc(C)cc4)cc3c2)no1` has a documented selectivity ratio of > 12

In plain terms, `CCOC(=O)c1cnc2ccc(-c3ccccc3N)cc2c1` has a documented selectivity ratio of > 1

In plain terms, `Cc1ccc(-c2ccc3ncc(-c4noc(C)n4)cc3c2)cc1` has a documented selectivity ratio of > 13

In plain terms, `CCCc1nc(-c2cnc3ccc(-c4ccc(N)cc4)cc3c2)no1` has a documented selectivity ratio of > 2

In plain terms, `CCCc1ccc(-c2ccc3ncc(-c4noc(C)n4)cc3c2)cc1` has a documented selectivity ratio of > 10

In plain terms, `CCCCc1ccc(-c2ccc3ncc(-c4noc(C(F)(F)F)n4)cc3c2)cc1` has a documented selectivity ratio of > 39

In plain terms, `CCCCc1nc(-c2cnc3ccc(-c4ccc(N)cc4)cc3c2)no1` has a documented selectivity ratio of > 3

In plain terms, `CCOC(=O)c1cnc2ccc(-c3ccc(N)cc3)cc2c1` has a documented selectivity ratio of > 16

In plain terms, `CCc1nc(-c2cnc3ccc(-c4ccccc4N)cc3c2)no1` has a documented selectivity ratio of 9

In plain terms, `CN(C)c1ccc(-c2ccc3ncc(-c4noc(C(F)(F)F)n4)cc3c2)cc1` has a documented selectivity ratio of > 16

In plain terms, `CCc1ccc(-c2ccc3ncc(-c4noc(CC)n4)cc3c2)cc1` has a documented selectivity ratio of > 38

In plain terms, `Cc1ccc(-c2ccc3ncc(-c4noc(C(F)(F)F)n4)cc3c2)cc1` has a documented selectivity ratio of > 49

In plain terms, `CCOC(=O)c1cnc2ccc(-c3ccc(C(C)C)cc3)cc2c1` has a documented selectivity ratio of > 2

In plain terms, `CCOC(=O)c1cnc2ccc(-c3cccc(N)c3)cc2c1` has a documented selectivity ratio of > 1

In plain terms, `CC(C)c1nc(-c2cnc3ccc(-c4ccc(N)cc4)cc3c2)no1` has a documented selectivity ratio of > 2

In plain terms, `CCCc1ccc(-c2ccc3ncc(-c4noc(CC)n4)cc3c2)cc1` has a documented selectivity ratio of > 14
